tested on: Boophilus microplus; assay: Boophilus microplus injection test; type: in vivo; settings: application rate 20 μg/animal, after 7 days, laying of fertile eggs
PROPERTY_LABEL: efficacy (%)
Quick reminder: number only, in %, skip the unit.

Reading of efficacy for `COc1cc(C(=O)Nc2ccc(F)c(-c3cnn(-c4c(C)cc(C(F)(C(F)(F)F)C(F)(F)F)cc4C(F)(F)F)c3)c2)ccc1C#N` with Boophilus microplus: 100

Reading of efficacy for `Cc1cc(C(F)(C(F)(F)F)C(F)(F)F)cc(C(F)(F)F)c1-n1cc(-c2ccc(F)c(NC(=O)c3ccc(F)nc3)c2F)cn1` with Boophilus microplus: 100

Reading of efficacy for `Cc1cc(C(F)(C(F)(F)F)C(F)(F)F)cc(C(F)(F)F)c1-n1cc(-c2cccc(NC(=O)c3ccc(C#N)nc3)c2F)cn1` with Boophilus microplus: 100

====

test system: Tetranychus urticae; assay: Tetranychus urticae spray test, OP-resistant; type: in vivo; settings: application rate 500 g/ha, all stages on bean leaf discs, after 6 days
PROPERTY_LABEL: efficacy (%)
Quick reminder: number only, in %, skip the unit.

SMILES_CODE | efficacy (%)
O=C(Nc1cccc(-c2cnn(-c3c(Cl)cc(C(F)(F)F)cc3Cl)c2)c1)c1ccncc1 | 90

Memo: `Cc1cc(C(F)(C(F)(F)F)C(F)(F)F)cc(C)c1-n1cc(-c2ccc(F)c(NC(=O)c3ccc(F)cc3)c2)cn1` , reported efficacy: 100

Memo: `Cc1cc(C(F)(C(F)(F)F)C(F)(F)F)cc(C)c1-n1cc(-c2ccc(Cl)c(NC(=O)c3ccncc3)c2)cn1` , reported efficacy: 100

Memo: `Cc1cc(C(F)(C(F)(F)F)C(F)(F)F)cc(C)c1-n1cc(-c2ccc(Cl)c(NC(=O)c3ccc(F)cc3)c2)cn1` , reported efficacy: 90

====

efficacy overview
system: Phaedon cochleariae; assay: Phaedon cochleariae spray test; assay type: in vivo; settings: application rate 100 g/ha, larvae on Chinese cabbage leaf discs, after 7 days
Quick reminder: number only, in %, skip the unit.

Guide cases for efficacy, answers given:
SMILES_CODE | efficacy [%]
O=C(Nc1ccc(F)c(-c2cnn(-c3c(Br)cc(C(F)(C(F)(F)F)C(F)(F)F)cc3C(F)(F)F)c2)c1)c1ccncc1 | 100
Cc1cc(C(F)(C(F)(F)F)C(F)(F)F)cc(C(F)(F)F)c1-n1cc(-c2ccc(F)c(NC(=O)C3CSC3)c2F)cn1 | 100

For the next question, use this molecule.
Memo: `Cc1cc(C(F)(C(F)(F)F)C(F)(F)F)cc(C(F)(F)F)c1-n1cc(-c2ccc(F)c(NC(=O)c3ccncc3)c2)cn1` , reported efficacy: 100

====

test: logP determination by HPLC on reversed-phase column (EEC Directive 79/831 Annex V.A8); format: physicochemical; details: Table 1; HPLC C18, acetonitrile/water with formic acid

SMILES_CODE | lgP
Cc1cc(C(F)(C(F)(F)F)C(F)(F)F)cc(C)c1-n1cc(-c2cnc(Cl)c(NC(=O)C3(C#N)CC3)c2)cn1 | lgP 4.69
Cc1cc(C(F)(C(F)(F)F)C(F)(F)F)cc(C)c1-n1cc(-c2ccnc(NC(=O)c3ccc(F)cc3)c2)cn1 | lgP 4.69

====

test system: Boophilus microplus; assay: Boophilus microplus injection test; format: in vivo; conditions: application rate 20 μg/animal, after 7 days, laying of fertile eggs
PROPERTY_LABEL: efficacy (%)
Quick reminder: number only, in %, skip the unit.

Guide cases for efficacy, answers given:
COMPOUND | TESTED_SYSTEM | UNITS_TEXT | OBSERVED_MEASUREMENT
Cc1cc(C(F)(C(F)(F)F)C(F)(F)F)cc(C(F)(F)F)c1-n1cc(-c2cc(NC(=O)c3cnco3)ccc2F)cn1 [Example 2-11] | Boophilus microplus | % | 100
Cc1cc(C(F)(C(F)(F)F)C(F)(F)F)cc(C)c1-n1cc(-c2ccc(N(C)C)c(NC(=O)c3ccc(F)cc3)c2)cn1 [Example 21] | Boophilus microplus | % | 100
Cc1cc(C(F)(C(F)(F)F)C(F)(F)F)cc(C(F)(F)F)c1-n1cc(-c2cc(NC(=O)c3ccccc3)ccc2F)cn1 [Example 2-10] | Boophilus microplus | % | 100
Cc1cc(C(F)(C(F)(F)F)C(F)(F)F)cc(C(F)(F)F)c1-n1cc(-c2cccc(NC(=O)c3ccsc3)c2F)cn1 [Example 75] | Boophilus microplus | % | 100
Cc1cc(C(F)(C(F)(F)F)C(F)(F)F)cc(C(F)(F)F)c1-n1cc(-c2ccc(F)c(NC(=O)c3ccc(F)nc3)c2)cn1 [Example 39] | Boophilus microplus | % | 100
Cc1cc(C(F)(C(F)(F)F)C(F)(F)F)cc(C(F)(F)F)c1-n1cc(-c2ccc(F)c(N(C)C(=O)c3ccc(F)nc3)c2)cn1 [Example 48] | Boophilus microplus | % | 100
Cc1cnccc1C(=O)Nc1cc(-c2cnn(-c3c(C)cc(C(F)(C(F)(F)F)C(F)(F)F)cc3C(F)(F)F)c2)ccc1F [Example 54] | Boophilus microplus | % | 100

For the next question, use this compound.
Memo: COc1cc(C(=O)Nc2cc(-c3cnn(-c4c(C)cc(C(F)(C(F)(F)F)C(F)(F)F)cc4C(F)(F)F)c3)ccc2F)ccc1C [Example 47] , reported efficacy: 100

The measurements presented in this section are drawn from patent US10202351B2.
